- assayed.target: MPO (purified from human polynuclear leukocytes) (Homo sapiens, UniProt P05164)
- Construct: purified from human polynuclear leukocytes; purchased Calbiochem/EMD Biosciences; host or cells: human polynuclear leukocytes (natural source)
- Sequence (P05164 279-745 limits assumed): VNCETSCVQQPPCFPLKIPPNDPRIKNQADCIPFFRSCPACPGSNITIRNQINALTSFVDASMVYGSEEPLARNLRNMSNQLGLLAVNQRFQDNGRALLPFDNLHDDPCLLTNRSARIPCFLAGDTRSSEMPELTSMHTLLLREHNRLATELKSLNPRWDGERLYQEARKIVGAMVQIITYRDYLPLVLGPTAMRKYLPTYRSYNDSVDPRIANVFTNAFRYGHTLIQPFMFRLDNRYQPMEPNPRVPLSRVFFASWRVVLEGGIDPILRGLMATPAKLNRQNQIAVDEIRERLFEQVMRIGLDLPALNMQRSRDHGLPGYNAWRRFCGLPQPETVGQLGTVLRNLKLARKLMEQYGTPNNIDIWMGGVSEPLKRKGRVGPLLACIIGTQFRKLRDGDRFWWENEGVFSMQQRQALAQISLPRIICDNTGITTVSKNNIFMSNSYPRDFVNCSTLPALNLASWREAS
- Sequence (P05164 165-273 limits assumed): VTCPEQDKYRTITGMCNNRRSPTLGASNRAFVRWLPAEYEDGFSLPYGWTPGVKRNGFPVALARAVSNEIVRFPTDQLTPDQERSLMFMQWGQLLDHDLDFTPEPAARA
- measurement.protocol: MPO Amplex Red Activity Assay
- Format: biochemical
- stated.conditions: Table 1, 2 μM H2O2, pH 7.4
Counter-ions that a name gives are not always drawn.
Recorded MPO kinact/Ki, one value per entry.

[[record]]
compound = "COCCn1c(-c2cccc3[nH]ccc23)cc(=O)[nH]c1=S"
readout_name = "MPO kinact/Ki"
result = "6290 1/s per M"


Name the recorded MPO kinact/Ki of the compound listed here: `Cl.NCCCOc1ccccc1-c1cc(=O)[nH]c(=S)n1CCN` 1580 1/s per M

Name the recorded MPO kinact/Ki of the compound listed here: `COCCn1c(-c2ncc[nH]2)cc(=O)[nH]c1=S` 1070 1/s per M

Name the recorded MPO kinact/Ki of the compound listed here: `COc1ccc(-c2cc(=O)[nH]c(=S)n2CC(C)(C)O)c(OC)c1` 2560 1/s per M

Name the recorded MPO kinact/Ki of the compound listed here: CNCCn1c(-c2ccc(OC)cc2OC)cc(=O)[nH]c1=S [Example 177, formate] 5130 1/s per M

Name the recorded MPO kinact/Ki of the compound listed here: `COCCn1c(-c2ccc(OC)cc2Cl)cc(=O)[nH]c1=S` 6840 1/s per M

Name the recorded MPO kinact/Ki of the compound listed here: `COc1ccc(-c2cc(=O)[nH]c(=S)n2Cc2cnc(C)cn2)c(OC)c1` 3060 1/s per M

Name the recorded MPO kinact/Ki of the compound listed here: COc1ccccc1-c1cc(=O)[nH]c(=S)n1CCN [Example 11, hydrochloride] 6880 1/s per M

Name the recorded MPO kinact/Ki of the compound listed here: `COCCn1c(-c2cc3c(cc2OC)CCCC3)cc(=O)[nH]c1=S` 14300 1/s per M

Name the recorded MPO kinact/Ki of the compound listed here: `COCCn1c(-c2c(F)cccc2OC)cc(=O)[nH]c1=S` 3470 1/s per M

Name the recorded MPO kinact/Ki of the compound listed here: NCCCn1c(-c2cc3ccccc3s2)cc(=O)[nH]c1=S [Example 71, hydrochloride] 3570 1/s per M

* * *

- assayed.target: MPO (purified from human polynuclear leukocytes) (Homo sapiens, UniProt P05164)
- Construct: purified from human polynuclear leukocytes; purchased Calbiochem/EMD Biosciences; host or cells: human polynuclear leukocytes (natural source)
- measurement.protocol: MPO Amplex Red Activity Assay
- Format: biochemical
- stated.conditions: Table 1, 2 μM H2O2, pH 7.4
Recorded MPO kinact/Ki, one value per entry.

Worked examples follow.
[[record]]
compound = "COCCn1c(-c2cnc(N(C)C)cc2OC)cc(=O)[nH]c1=S [Example 338]"
assayed_target = "MPO (purified from human polynuclear leukocytes) (Homo sapiens, UniProt P05164)"
result = "1280 1/s per M"

[[record]]
compound = "O=c1cc(-c2ccccc2OCCO)n(CCO)c(=S)[nH]1 [Example 168]"
assayed_target = "MPO (purified from human polynuclear leukocytes) (Homo sapiens, UniProt P05164)"
result = "8890 1/s per M"


# input for lookup
Name the recorded MPO kinact/Ki of the compound listed here: COc1ncc(C)cc1-c1cc(=O)[nH]c(=S)n1CCN [Example 19] 1960 1/s per M

* * *

- assayed.target: MPO (purified from human polynuclear leukocytes) (Homo sapiens)
- Construct: purified from human polynuclear leukocytes; purchased Calbiochem/EMD Biosciences; host or cells: human polynuclear leukocytes (natural source)
- measurement.protocol: MPO Amplex Red Activity Assay
- Type: biochemical
- stated.conditions: Table 1, 2 μM H2O2, pH 7.4
Structures can show the parent of a compound that is named as a salt.
readout.name: MPO kinact/Ki

Worked examples follow.
[[record]]
molecule = "COc1ccc(-c2cc(=O)[nH]c(=S)n2C[C@@H](O)CO)c(OC)c1"
result = "3900 1/s per M"

[[record]]
molecule = "COc1ncc(C)cc1-c1cc(=O)[nH]c(=S)n1CCCN [Example 45, trifluoroacetate]"
result = "4000 1/s per M"

[[record]]
molecule = "COc1ccccc1-c1cc(=O)[nH]c(=S)n1CCCN=C(N)N"
result = "41800 1/s per M"


Name the recorded MPO kinact/Ki of the molecule listed here: `COCCn1c(-c2cccnc2)cc(=O)[nH]c1=S` 386 1/s per M

Name the recorded MPO kinact/Ki of the molecule listed here: `COCCn1c(-c2ccc(OC)cc2)cc(=O)[nH]c1=S` 1910 1/s per M

Name the recorded MPO kinact/Ki of the molecule listed here: NCCn1c(-c2ccccc2-n2nccn2)cc(=O)[nH]c1=S [Example 144, hydrochloride] 6010 1/s per M

Name the recorded MPO kinact/Ki of the molecule listed here: COc1ccc(-c2cc(=O)[nH]c(=S)n2CC2CNCCO2)c(OC)c1 (centres unmarked) [Example 238, hydrochloride] 8740 1/s per M

Name the recorded MPO kinact/Ki of the molecule listed here: `COc1ccc(Cl)cc1-c1cc(=O)[nH]c(=S)n1CCO` 22500 1/s per M

* * *

Recorded MPO kinact/Ki, one value per entry.
- assayed.target: MPO (purified from human polynuclear leukocytes) (Homo sapiens)
- Construct: purified from human polynuclear leukocytes; purchased Calbiochem/EMD Biosciences; host or cells: human polynuclear leukocytes (natural source)
- measurement.protocol: MPO Amplex Red Activity Assay
- Assay type: biochemical
- stated.conditions: Table 1, 2 μM H2O2, pH 7.4
Structures can show the parent of a compound that is named as a salt.

[[record]]
compound = "COc1ccc(-c2cc(=O)[nH]c(=S)n2CCS(N)(=O)=O)c(OC)c1"
result = "3590 1/s per M"

[[record]]
compound = "COc1ccc(-c2cc(=O)[nH]c(=S)n2CC2CCCN2C(=N)N)c(OC)c1 (stereo not drawn) [Example 258, trifluoroacetate]"
result = "1460 1/s per M"

[[record]]
compound = "COc1ccc(-c2cc(=O)[nH]c(=S)n2CCO)c(OC)n1"
result = "8790 1/s per M"

[[record]]
compound = "COc1ccc(Cl)cc1-c1cc(=O)[nH]c(=S)n1CCCNC(=O)CN [Example 149, hydrochloride]"
result = "9770 1/s per M"

[[record]]
compound = "COCCn1c(-c2ncccc2OC)cc(=O)[nH]c1=S"
result = "1330 1/s per M"


// output MPO kinact/Ki; input `CNC(=O)CCn1c(-c2ccc(OC)cc2OC)cc(=O)[nH]c1=S` ; system MPO (purified from human polynuclear leukocytes) (Homo sapiens) 3260 1/s per M

// output MPO kinact/Ki; input COc1ccc(-c2cc(=O)[nH]c(=S)n2CCCCCN)c(OC)c1 [Example 218, hydrochloride] ; system MPO (purified from human polynuclear leukocytes) (Homo sapiens) 14100 1/s per M

// output MPO kinact/Ki; input `COCCn1c(-c2cnc(N(C)C)nc2)cc(=O)[nH]c1=S` ; system MPO (purified from human polynuclear leukocytes) (Homo sapiens) 429 1/s per M

// output MPO kinact/Ki; input `NC(=O)Cn1c(-c2ccccc2OC(F)(F)F)cc(=O)[nH]c1=S` ; system MPO (purified from human polynuclear leukocytes) (Homo sapiens) 3760 1/s per M

// output MPO kinact/Ki; input `COc1ccc(F)cc1-c1cc(=O)[nH]c(=S)n1CCO` ; system MPO (purified from human polynuclear leukocytes) (Homo sapiens) 13700 1/s per M

// output MPO kinact/Ki; input `COc1cc2ccccc2cc1-c1cc(=O)[nH]c(=S)n1CCO` ; system MPO (purified from human polynuclear leukocytes) (Homo sapiens) 16100 1/s per M

// output MPO kinact/Ki; input `COCCn1c(-c2cnc3ccccc3c2)cc(=O)[nH]c1=S` ; system MPO (purified from human polynuclear leukocytes) (Homo sapiens) 2390 1/s per M

* * *

Recorded MPO kinact/Ki, one value per entry.
- assayed.target: MPO (purified from human polynuclear leukocytes) (Homo sapiens)
- Construct: purified from human polynuclear leukocytes; purchased Calbiochem/EMD Biosciences; host or cells: human polynuclear leukocytes (natural source)
- measurement.protocol: MPO Amplex Red Activity Assay
- Assay type: biochemical
- stated.conditions: Table 1, 2 μM H2O2, pH 7.4
Where a name gives a salt, the structure may show the parent alone.

Worked examples follow.
[[record]]
compound = "COc1ccccc1-c1cc(=O)[nH]c(=S)n1CCN=C(N)N [Example 77, hydrochloride]"
result = "6660 1/s per M"

[[record]]
compound = "COc1ccc(-c2cc(=O)[nH]c(=S)n2CC(O)CN)c(OC)c1 (stereo not shown) [Example 199, hydrochloride]"
result = "9080 1/s per M"

[[record]]
compound = "COCCn1c(-c2cc(OC)ccc2OC)cc(=O)[nH]c1=S"
result = "15000 1/s per M"

[[record]]
compound = "COc1nc2ccccc2cc1-c1cc(=O)[nH]c(=S)n1CCN [Example 97, trifluoroacetate]"
result = "6310 1/s per M"

[[record]]
compound = "O=c1cc(-c2cccc3c2OCC3)n(CCO)c(=S)[nH]1"
result = "6510 1/s per M"

[[record]]
compound = "COCCn1c(-c2c[nH]c3ccccc23)cc(=O)[nH]c1=S"
result = "4520 1/s per M"

[[record]]
compound = "COCCn1c(-c2cc3ccccc3[nH]2)cc(=O)[nH]c1=S"
result = "3630 1/s per M"

[[record]]
compound = "COc1ccc(C#N)cc1-c1cc(=O)[nH]c(=S)n1CCO"
result = "8090 1/s per M"

[[record]]
compound = "COc1ccc(-c2cc(=O)[nH]c(=S)n2CC(N)=O)c2ccccc12"
result = "4900 1/s per M"


# input for lookup
Name the recorded MPO kinact/Ki of the compound listed here: `CCOc1ccc(-c2cc(=O)[nH]c(=S)n2CCOC)cn1` 973 1/s per M
